biological target: porcine pancreatic elastase (Sus scrofa, UniProt P00772); construct: purchased Sigma, USA; test: Inhibition of porcine pancreatic elastase (MeOSuc-AAA-pNA hydrolysis); assay type: biochemical; conditions: 15 nM enzyme, 1 mM substrate, 37° C., pH8; read-out: Porcine pancreatic elastase (PPE) IC50
Sequence (P00772 27-266): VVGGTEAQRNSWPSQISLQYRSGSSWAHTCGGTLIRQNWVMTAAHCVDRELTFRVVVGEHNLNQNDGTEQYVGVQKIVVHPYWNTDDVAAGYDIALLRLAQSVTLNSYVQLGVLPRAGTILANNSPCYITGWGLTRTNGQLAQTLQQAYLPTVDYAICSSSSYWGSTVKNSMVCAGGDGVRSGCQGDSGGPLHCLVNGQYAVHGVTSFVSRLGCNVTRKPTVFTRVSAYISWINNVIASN
Non-standard residues stand in square brackets, D forms with d. Residues, ends and D or L forms follow the SMILES beside them. hTyr = N[C@@H](CCc1ccc(O)cc1)C(=O)O; AllylGly = C=CC[C@H](N)C(=O)O
QUANTITY_NAME: pIC50
Expect pIC50 as a plain number equal to -log10 of the molar concentration.

Reference set (2 entries):
{"COMPOUND": "CC[C@H](C)[C@@H]1NC(=O)[C@H](CO)NC(=O)[C@H](C)NC(=O)[C@H]([C@@H](C)O)NC(=O)[C@H](C(C)C)NC(=O)[C@H](CCCNC(=N)N)NC(=O)[C@@H]2CCCN2C(=O)[C@H]2CCCN2C(=O)[C@H](Cc2ccc(O)cc2)NC(=O)[C@H](CCCCN)NC(=O)[C@H](CCC(N)=O)NC(=O)[C@@H]2CCCN2C(=O)[C@@H]2CCCN2C1=O [Example 18] (cyclo(RVTASIPPQKY[dP]P))", "QUANTITY_NAME": "pIC50", "REPORTED_MEASUREMENT": 5.14}
{"COMPOUND": "C=CC[C@@H]1NC(=O)[C@H]([C@@H](C)O)NC(=O)[C@H](CCC(=O)O)NC(=O)[C@H](CCCNC(=N)N)NC(=O)[C@@H]2CCCN2C(=O)[C@H]2CCCN2C(=O)[C@H]([C@@H](C)O)NC(=O)[C@H](CCCCN)NC(=O)[C@H](CCC(N)=O)NC(=O)[C@@H]2CCCN2C(=O)[C@@H]2CCCN2C(=O)[C@H]([C@@H](C)CC)NC(=O)[C@H](CO)NC1=O [Example 7] (cyclo(RET[AllylGly]SIPPQKT[dP]P))", "QUANTITY_NAME": "pIC50", "REPORTED_MEASUREMENT": 4.23}

Then there is this compound:
The measured pIC50 associated with CC[C@H](C)[C@@H]1NC(=O)[C@H](CO)NC(=O)[C@H](C)NC(=O)[C@H]([C@@H](C)O)NC(=O)[C@H](CCc2ccc(O)cc2)NC(=O)[C@H](CCCNC(=N)N)NC(=O)[C@@H]2CCCN2C(=O)[C@H]2CCCN2C(=O)[C@H]([C@@H](C)O)NC(=O)[C@H](CCCCN)NC(=O)[C@H](CCC(N)=O)NC(=O)[C@@H]2CCCN2C(=O)[C@@H]2CCCN2C1=O [Example 17] (cyclo(R[hTyr]TASIPPQKT[dP]P)) reads 4.18

----------
biological target: porcine pancreatic elastase (Sus scrofa); construct: purchased Sigma, USA; test: Inhibition of porcine pancreatic elastase (MeOSuc-AAA-pNA hydrolysis); format: biochemical; settings: ratio of PPE IC50 to hNE IC50
Non-standard residues stand in square brackets, D forms with d. Residues, ends and D or L forms follow the SMILES beside them. Nle = CCCC[C@H](N)C(=O)O
QUANTITY_NAME: hNE/PPE selectivity
Please give only the number in your answer, with no unit.

Reference set (2 entries):
{"COMPOUND": "CC[C@H](C)[C@@H]1NC(=O)[C@H](CO)NC(=O)[C@H](C)NC(=O)[C@H]([C@@H](C)O)NC(=O)[C@H](C(C)C)NC(=O)[C@H](CCCNC(=N)N)NC(=O)[C@@H]2CCCN2C(=O)[C@H]2CCCN2C(=O)[C@H](Cc2ccc(O)cc2)NC(=O)[C@H](CCCCN)NC(=O)[C@H](CCC(N)=O)NC(=O)[C@@H]2CCCN2C(=O)[C@@H]2CCCN2C1=O [Example 18] (cyclo(RVTASIPPQKY[dP]P))", "TEST_TARGET": "porcine pancreatic elastase (Sus scrofa)", "QUANTITY_NAME": "hNE/PPE selectivity", "REPORTED_MEASUREMENT": 1043}
{"COMPOUND": "CC[C@H](C)[C@@H]1NC(=O)[C@H](CO)NC(=O)[C@H](C)NC(=O)[C@H]([C@@H](C)O)NC(=O)[C@H](CCC(=O)O)NC(=O)[C@H](CCCNC(=N)N)NC(=O)[C@@H]2CCCN2C(=O)[C@H]2CCCN2C(=O)[C@H](Cc2c[nH]cn2)NC(=O)[C@H](CCCCN)NC(=O)[C@H](Cc2ccc(O)cc2)NC(=O)[C@@H]2CCCN2C(=O)[C@@H]2CCCN2C1=O [Example 14] (cyclo(RETASIPPYKH[dP]P))", "TEST_TARGET": "porcine pancreatic elastase (Sus scrofa)", "QUANTITY_NAME": "hNE/PPE selectivity", "REPORTED_MEASUREMENT": 229}

Then there is this compound:
The measured hNE/PPE selectivity associated with CCCC[C@@H]1NC(=O)[C@H](CCCNC(=N)N)NC(=O)[C@@H]2CCCN2C(=O)[C@H]2CCCN2C(=O)[C@H](Cc2ccc(O)cc2)NC(=O)[C@H](CCCCN)NC(=O)[C@H](CCC(N)=O)NC(=O)[C@@H]2CCCN2C(=O)[C@@H]2CCCN2C(=O)[C@H]([C@@H](C)CC)NC(=O)[C@H](CO)NC(=O)[C@H](C)NC(=O)[C@H]([C@@H](C)O)NC1=O [Example 6] (cyclo(R[Nle]TASIPPQKY[dP]P)) reads 174

Entry source: patent US10723765B2
